- Tested on: Malme-3M
- ASSAY: NCI tumour cell line growth inhibition, 48 h
Calls of active or inactive are those of the source. No stated cut-off is given here; in the data, active = GI50 up to about 1.1 µM and inactive = higher.
Lab note: assign the record to one of active, inactive

## Task Dear colleague, could you share the recorded outcome for CCOC(=O)c1cc(NC(=O)c2ccccc2)c(=O)n2c(cc3c(Cl)cccc32)c1O when you have a moment?
## Result inactive

## Task Dear colleague, could you share the recorded outcome for O=C1Nc2ccccc2/C1=N/NC(=S)N1CCCC1 when you have a moment?
## Result active

## Task Dear colleague, could you share the recorded outcome for CCOC(=O)N1CCc2cc(OC)c(OC)cc2/C1=C\c1ccc(OC)c(OC)c1 when you have a moment?
## Result inactive

## Task Dear colleague, could you share the recorded outcome for Oc1cccc2nc3cc(CN4CCOCC4)c(CN4CCOCC4)cc3nc12 when you have a moment?
## Result inactive

## Task Dear colleague, could you share the recorded outcome for O=C1NN=C(c2ccc([N+](=O)[O-])cc2)C1n1nc(-c2ccccc2)c2ccccc2c1=O (centres undefined) when you have a moment?
## Result inactive

## Task Dear colleague, could you share the recorded outcome for Cc1ccc(-c2cc(-c3cc(-c4ccc(C)cc4C)[nH]n3)[nH]n2)c(C)c1 when you have a moment?
## Result inactive

## Task Dear colleague, could you share the recorded outcome for CCOC(=O)C(NC(=O)c1nc[nH]c1/N=N/N(C)C)C(C)C (centres undefined) when you have a moment?
## Result inactive

## Task Dear colleague, could you share the recorded outcome for COc1ccc(C2NC(N)=C(C#N)C3=C2C(C)CCC3)cc1OC (centres undefined) when you have a moment?
## Result inactive

## Task Dear colleague, could you share the recorded outcome for OC1(c2ccc(Cl)cc2)c2c(ccc3c2OCO3)C2=NCCN21 (centres undefined) when you have a moment?
## Result inactive

## Task Dear colleague, could you share the recorded outcome for CCSc1c2cc(OC)ccc2nc2ccc(OC)cc12 when you have a moment?
## Result inactive

## Task Dear colleague, could you share the recorded outcome for COc1cccc(-c2cc(=O)c3cc(N4CCCCC4)ccc3[nH]2)c1 when you have a moment?
## Result inactive

## Task Dear colleague, could you share the recorded outcome for Cn1c(=O)cc(NNc2ccc(Cl)c(Cl)c2)[nH]c1=O when you have a moment?
## Result inactive

## Task Dear colleague, could you share the recorded outcome for CC[S+]1C2=C(CC(C)(C)CC2=O)[N-]c2ccccc21 (centres undefined) when you have a moment?
## Result inactive

## Task Dear colleague, could you share the recorded outcome for C=C1CC(C)(c2ccc(Nc3nc4ccccc4c4occc34)cc2)OC1=O (centres undefined) when you have a moment?
## Result inactive

## Task Dear colleague, could you share the recorded outcome for CC(=O)C1(c2ccccc2)CCCN(C)CC1 (centres undefined) when you have a moment?
## Result inactive

## Task Dear colleague, could you share the recorded outcome for NCCCC[C@H](N)C(=O)Nc1ccc(-c2nc3ccccc3s2)cc1Cl when you have a moment?
## Result inactive

## Task Dear colleague, could you share the recorded outcome for CCOC(=O)C(C)(C)C(O)C(C)C (centres undefined) when you have a moment?
## Result inactive

## Task Dear colleague, could you share the recorded outcome for COC(=O)CCc1cc(OC)c(O)c(C(Cc2ccc(OC)c(OC)c2)C(=O)OC)c1 (centres undefined) when you have a moment?
## Result inactive

## Task Dear colleague, could you share the recorded outcome for Cc1ccc(NC(=O)CC/C(CC(=O)C(C)(C)C)=N/NC(=O)c2cc3ccccc3cc2O)cc1C when you have a moment?
## Result inactive

## Task Dear colleague, could you share the recorded outcome for NCCCN1CCN(CC(=O)O)CCN(CCCN)CCN(CC(=O)O)CC1 when you have a moment?
## Result inactive

## Task Dear colleague, could you share the recorded outcome for COc1cc([C@@]23OC[C@@H]4[C@@H](OC[C@@H]42)c2cc4c(cc23)OCO4)cc(OC)c1OC when you have a moment?
## Result active

## Task Dear colleague, could you share the recorded outcome for CCOC(=O)CCC(C(=O)OCC)n1nnc2ccc(Nc3c(C)[n+]([O-])c4ccc(Cl)cc4[n+]3[O-])cc21 (centres undefined) when you have a moment?
## Result inactive

## Task Dear colleague, could you share the recorded outcome for COC(=O)[C@@H](NC1(c2ccccc2)c2ccccc2-c2ccccc21)[C@H](OC(=O)[C@H]1CCCN1S(=O)(=O)c1ccccc1)C(=O)OC when you have a moment?
## Result inactive

## Task Dear colleague, could you share the recorded outcome for c1ccc(N2N=C(c3ccco3)CC2c2ccco2)cc1 (centres undefined) when you have a moment?
## Result inactive

## Task Dear colleague, could you share the recorded outcome for CN(CCCNC(=O)c1nn(-c2ccccc2)c2c1ccc1ccccc12)CCCNC(=O)c1nn(-c2ccccc2)c2c1ccc1ccccc12 when you have a moment?
## Result inactive

## Task Dear colleague, could you share the recorded outcome for Cc1c(-c2nc3ccccc3[nH]2)c(=O)n(-c2ccccc2)n1C when you have a moment?
## Result inactive

## Task Dear colleague, could you share the recorded outcome for Cc1ccccc1C1CC(=O)CC(c2ccccc2C)C12C(=O)NC(=O)NC2=O (centres undefined) when you have a moment?
## Result inactive

## Task Dear colleague, could you share the recorded outcome for COc1ccc(OC)c2sc(N3C(=O)/C(=C/c4cccc([N+](=O)[O-])c4)N=C3c3ccccc3)nc12 when you have a moment?
## Result inactive

## Task Dear colleague, could you share the recorded outcome for CCOc1ccc(NC(=O)/C(=C\c2ccc(C)cc2)C(C)=O)cc1 when you have a moment?
## Result inactive

## Task Dear colleague, could you share the recorded outcome for Clc1ccc(-c2nn3c(-c4ccncc4)nnc3s2)cc1 when you have a moment?
## Result inactive

## Task Dear colleague, could you share the recorded outcome for CC(C)(C)C1CCC2c3c([nH]c4ccccc34)C3C(=O)N(c4ccc(C#N)cc4)C(=O)C3C2C1 (centres undefined) when you have a moment?
## Result inactive

## Task Dear colleague, could you share the recorded outcome for C=CCOC1=C(OC(C)=O)C(C2COC(C)(C)O2)OC1=O (centres undefined) when you have a moment?
## Result inactive

## Task Dear colleague, could you share the recorded outcome for Cc1cc(Cc2c(C)c(C)c(Cc3cc(C)cc(C(C)(C)C)c3O)c(C)c2C)c(O)c(C(C)(C)C)c1 when you have a moment?
## Result inactive

## Task Dear colleague, could you share the recorded outcome for CCCn1cc2c(SC)nc(SC)nc2n1 when you have a moment?
## Result inactive

Values from ChEMBL document CHEMBL1201862
